Each entry below lists one item and its recorded human MASP1 IC50 value.
# TARGET_SYSTEM: T1, Recombinant human MASP1 enzyme (fragment corresponding to amino acids 297-699, C-terminal His Tag) (human, UniProt P48740 297-699)
# T1 sequence: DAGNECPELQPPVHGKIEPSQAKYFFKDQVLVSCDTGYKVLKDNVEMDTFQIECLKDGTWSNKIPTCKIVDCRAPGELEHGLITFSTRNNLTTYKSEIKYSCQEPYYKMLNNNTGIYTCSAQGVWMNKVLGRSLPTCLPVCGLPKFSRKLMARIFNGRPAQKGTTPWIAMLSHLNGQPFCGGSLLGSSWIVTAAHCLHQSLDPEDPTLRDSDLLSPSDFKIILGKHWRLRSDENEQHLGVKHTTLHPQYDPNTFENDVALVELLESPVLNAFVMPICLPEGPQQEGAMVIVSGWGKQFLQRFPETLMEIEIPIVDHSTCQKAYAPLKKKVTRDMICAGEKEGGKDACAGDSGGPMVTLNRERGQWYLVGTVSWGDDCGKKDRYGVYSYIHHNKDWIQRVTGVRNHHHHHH
# EXPERIMENT_NOTES: cell-based or functional assay
Bridge positions count the residues as written; N and C are the ends. Square brackets hold non-standard residues; d marks the D form. Ends that are not written are not given here. (S)‑4‑Piperazine‑2‑carboxylic acid = (S)-4-piperazine-2-carboxylic acid; Phe(3-COOH) = N[C@@H](Cc1cccc(C(=O)O)c1)C(=O)O; Oic = O=C(O)[C@@H]1C[C@@H]2CCCC[C@@H]2N1; tBuAla = CC(C)(C)C[C@H](N)C(=O)O; PEG4 = NCCOCCOCCOCCOCCC(=O)O; Pen = CC(C)(S)[C@H](N)C(=O)O; Sar = CNCC(=O)O
Kindly answer with a numeric value in nM, unit omitted.

Solved cases below.
# BINDER, human MASP1 IC50 [nM]
rows = [
    ("[Sar]ICSRS[tBuAla]PPI[Pen]IP[PEG4]-OH (disulfide 3-11; N-terminus assumed; SMILES CC[C@H](C)[C@H](NC(=O)CNC)C(=O)N[C@H]1CSSC(C)(C)[C@@H](C(=O)N[C@H](C(=O)N2CCC[C@H]2C(=O)NCCOCCOCCOCCOCCC(=O)O)[C@@H](C)CC)NC(=O)[C@H]([C@@H](C)CC)NC(=O)[C@@H]2CCCN2C(=O)[C@@H]2CCCN2C(=O)[C@H](CC(C)(C)C)NC(=O)[C@H](CO)NC(=O)[C@H](CCCNC(=N)N)NC(=O)[C@H](CO)NC1=O) [((N-Me)G)-IC+SRS-((tBu)A)-PPI-(Pen)+IP-(PEG3(16atoms))-OH]", 2.1),
    ("[Sar]ICSRSLP[Oic]I[Pen]I[(S)‑4‑Piperazine‑2‑carboxylic acid]-OH (disulfide 3-11) [((N-Me))-GIC+SRSLP-(Oic)-I-(Pen)+I-((S)-4-Piperazine-2-carboxylic acid)-OH]", 2.4),
]

What value of human MASP1 IC50 has been recorded for this entry: [Sar]ICSRS[tBuAla]PPI[Pen]IP[Phe(3-COOH)]-OH (disulfide 3-11; N-terminus assumed; SMILES CC[C@H](C)[C@H](NC(=O)CNC)C(=O)N[C@H]1CSSC(C)(C)[C@@H](C(=O)N[C@H](C(=O)N2CCC[C@H]2C(=O)N[C@@H](Cc2cccc(C(=O)O)c2)C(=O)O)[C@@H](C)CC)NC(=O)[C@H]([C@@H](C)CC)NC(=O)[C@@H]2CCCN2C(=O)[C@@H]2CCCN2C(=O)[C@H](CC(C)(C)C)NC(=O)[C@H](CO)NC(=O)[C@H](CCCNC(=N)N)NC(=O)[C@H](CO)NC1=O) [((N-Me)G)-IC+SRS-((tBu)A)-PPI-(Pen)+IP-((3-Carboxy)F)-OH]
2.8
